The following sequences are shown together with reported melting temperature values.
- Tested on: HeLa Kyoto
- assay.protocol: melting temperature (median over replicates), in situ; higher = more thermally stable
- condition.set: cell cycle stage: G1/S
Kindly provide the numeric value in °C only, without the unit symbol.

| residue.sequence | unit.info | test.value |
| --- | --- | --- |
| MDGKQGGMDGSKPAGPRDFPGIRLLSNPLMGDAVSDWSPMHEAAIHGHQLSLRNLISQGWAVNIITADHVSPLHEACLGGHLSCVKILLKHGAQVNGVTADWHTPLFNACVSGSWDCVNLLLQHGASVQPESDLASPIHEAARRGHVECVNSLIAYGGNIDHKISHLGTPLYLACENQQRACVKKLLESGADVNQGKGQDSPLHAVARTASEELACLLMDFGADTQAKNAEGKRPVELVPPESPLAQLFLEREGPPSLMQLCRLRIRKCFGIQQHHKITKLVLPEDLKQFLLHL [ASB9] | °C | 55 |

Now for the sequence whose melting temperature we want.
Record request: melting temperature value, item MTSELDIFVGNTTLIDEDVYRLWLDGYSVTDAVALRVRSGILEQTGATAAVLQSDTMDHYRTFHMLERLLHAPPKLLHQLIFQIPPSRQALLIERYYAFDEAFVREVLGKKLSKGTKKDLDDISTKTGITLKSCRRQFDNFKRVFKVVEEMRGSLVDNIQQHFLLSDRLARDYAAIVFFANNRFETGKKKLQYLSFGDFAFCAELMIQNWTLGAVGEAPTDPDSQMDDMDMDLDKEFLQDLKELKVLVADKDLLDLHKSLVCTALRGKLGVFSEMEANFKNLSRGLVNVAAKLTHNKDVRDLFVDLVEKFVEPCRSDHWPLSDVRFFLNQYSASVHSLDGFRHQALWDRYMGTLRGCLLRLYHD [FIBP] 50.3

---

- System: HeLa Kyoto
- assay.protocol: thermal stability score vs G1/S (z-score of summed log2 fold changes over temperatures); higher = more thermally stable than in G1/S
- condition.set: cell cycle stage: early G1 (4.5 h after nocodazole release)
Label rule, in plain words: thermal stability score of -0.2 and up is true, under -0.2 is false.

| residue.sequence | class.label |
| --- | --- |
| MAAAAKPNNLSLVVHGPGDLRLENYPIPEPGPNEVLLRMHSVGICGSDVHYWEYGRIGNFIVKKPMVLGHEASGTVEKVGSSVKHLKPGDRVAIEPGAPRENDEFCKMGRYNLSPSIFFCATPPDDGNLCRFYKHNAAFCYKLPDNVTFEEGALIEPLSVGIHACRRGGVTLGHKVLVCGAGPIGMVTLLVAKAMGAAQVVVTDLSATRLSKAKEIGADLVLQISKESPQEIARKVEGQLGCKPEVTIECTGAEASIQAGIYATRSGGNLVLVGLGSEMTTVPLLHAAIREVDIKGVFRYCNTWPVAISMLASKSVNVKPLVTHRFPLEKALEAFETFKKGLGLKIMLKCDPSDQNP [SORD] | false |

Is thermal stability score at least -0.2? Consider MAAAAAAAVAGVGRGGGGAEPRQERSRARGWAGVERSEGRRMEPGEELEEEGSPGGREDGFTAEHLAAEAMAADMDPWLVFDARTTPATELDAWLAKYPPSQVTRYGDPGSPNSEPVGWIAVYGQGYSPNSGDVQGLQAAWEALQTSGRPITPGTLRQLAITHHVLSGKWLMHLAPGFKLDHAWAGIARAVVEGQLQVAKVSPRAKEGGRQVICVYTDDFTDRLGVLEADSAIRAAGIKCLLTYKPDVYTYLGIYRANRWHLCPTLYESRFQLGGSARGSRVLDRANNVELT [C11ORF68] true

Follow-up item: MRLGPRTAALGLLLLCAAAAGAGKAEELHYPLGERRSDYDREALLGVQEDVDEYVKLGHEEQQKRLQAIIKKIDLDSDGFLTESELSSWIQMSFKHYAMQEAKQQFVEYDKNSDDTVTWDEYNIQMYDRVIDFDENTALDDAEEESFRKLHLKDKKRFEKANQDSGPGLSLEEFIAFEHPEEVDYMTEFVIQEALEEHDKNGDGFVSLEEFLGDYRWDPTANEDPEWILVEKDRFVNDYDKDNDGRLDPQELLPWVVPNNQGIAQEEALHLIDEMDLNGDKKLSEEEILENPDLFLTSEATDYGRQLHDDYFYHDEL [RCN2] true

What do you get for MATHGQTCARPMCIPPSYADLGKAARDIFNKGFGFGLVKLDVKTKSCSGVEFSTSGSSNTDTGKVTGTLETKYKWCEYGLTFTEKWNTDNTLGTEIAIEDQICQGLKLTFDTTFSPNTGKKSGKIKSSYKRECINLGCDVDFDFAGPAIHGSAVFGYEGWLAGYQMTFDSAKSKLTRNNFAVGYRTGDFQLHTNVNDGTEFGGSIYQKVCEDLDTSVNLAWTSGTNCTRFGIAAKYQLDPTASISAKVNNSSLIGVGYTQTLRPGVKLTLSALVDGKSINAGGHKVGLALELEA [VDAC2] ? false

---

- Tested on: HeLa Kyoto
- assay.protocol: solubility in G1/S (NP-40 vs SDS abundance) (log2 ratio); higher = more soluble
- condition.set: cell cycle stage: G1/S
endpoint: solubility in G1/S (log2)
The answer should be a number; do not append a unit.

Some solved entries appear below for comparison.
| residue.sequence | solubility in G1/S (log2) |
| --- | --- |
| MARYEEVSVSGFEEFHRAVEQHNGKTIFAYFTGSKDAGGKSWCPDCVQAEPVVREGLKHISEGCVFIYCQVGEKPYWKDPNNDFRKNLKVTAVPTLLKYGTPQKLVESECLQANLVEMLFSED [TXNDC17] | 0.304 |
| MNQFGPSALINLSNFSSIKPEPASTPPQGSMANSTAVVKIPGTPGAGGRLSPENNQVLTKKKLQDLVREVDPNEQLDEDVEEMLLQIADDFIESVVTAACQLARHRKSSTLEVKDVQLHLERQWNMWIPGFGSEEIRPYKKACTTEAHKQRMALIRKTTKK [TAF12] | -0.0469 |
| MEEPEEPADSGQSLVPVYIYSPEYVSMCDSLAKIPKRASMVHSLIEAYALHKQMRIVKPKVASMEEMATFHTDAYLQHLQKVSQEGDDDHPDSIEYGLGYDCPATEGIFDYAAAIGGATITAAQCLIDGMCKVAINWSGGWHHAKKDEASGFCYLNDAVLGILRLRRKFERILYVDLDLHHGDGVEDAFSFTSKVMTVSLHKFSPGFFPGTGDVSDVGLGKGRYYSVNVPIQDGIQDEKYYQICESVLKEVYQAFNPKAVVLQLGADTIAGDPMCSFNMTPVGIGKCLKYILQWQLATLILGGGGYNLANTARCWTYLTGVILGKTLSSEIPDHEFFTAYGPDYVLEITPSCRPDRNEPHRIQQILNYIKGNLKHVV [HDAC8] | 0.168 |
| MRLFLWNAVLTLFVTSLIGALIPEPEVKIEVLQKPFICHRKTKGGDLMLVHYEGYLEKDGSLFHSTHKHNNGQPIWFTLGILEALKGWDQGLKGMCVGEKRKLIIPPALGYGKEGKGKIPPESTLIFNIDLLEIRNGPRSHESFQEMDLNDDWKLSKDEVKAYLKKEFEKHGAVVNESHHDALVEDIFDKEDEDKDGFISAREFTYKHDEL [FKBP14] | 0.295 |
| MALASVLERPLPVNQRGFFGLGGRADLLDLGPGSLSDGLSLAAPGWGVPEEPGIEMLHGTTTLAFKFRHGVIVAADSRATAGAYIASQTVKKVIEINPYLLGTMAGGAADCSFWERLLARQCRIYELRNKERISVAAASKLLANMVYQYKGMGLSMGTMICGWDKRGPGLYYVDSEGNRISGATFSVGSGSVYAYGVMDRGYSYDLEVEQAYDLARRAIYQATYRDAYSGGAVNLYHVREDGWIRVSSDNVADLHEKYSGSTP [PSMB5] | -0.00915 |
| MSDEGSRGSRLPLALPPASQGCSSGGGGGGSSAGGSGNSRPPRNLQGLLQMAITAGSEEPDPPPEPMSEERRQWLQEAMSAAFRGQREEVEQMKSCLRVLSQPMPPTAGEAEQAADQQEREGALELLADLCENMDNAADFCQLSGMHLLVGRYLEAGAAGLRWRAAQLIGTCSQNVAAIQEQVLGLGALRKLLRLLDRDACDTVRVKALFAISCLVREQEAGLLQFLRLDGFSVLMRAMQQQVQKLKVKSAFLLQNLLVGHPEHKGTLCSMGMVQQLVALVRTEHSPFHEHVLGALCSLVTDFPQGVRECREPELGLEELLRHRCQLLQQHEEYQEELEFCEKLLQTCFSSPADDSMDR [HSPBP1] | 0.303 |
| MTSRSTARPNGQPQASKICQFKLVLLGESAVGKSSLVLRFVKGQFHEYQESTIGAAFLTQSVCLDDTTVKFEIWDTAGQERYHSLAPMYYRGAQAAIVVYDITNQETFARAKTWVKELQRQASPSIVIALAGNKADLANKRMVEYEEAQAYADDNSLLFMETSAKTAMNVNDLFLAIAKKLPKSEPQNLGGAAGRSRGVDLHEQSQQNKSQCCSN [RAB5B] | 0.23 |
| MAPWTLWRCCQRVVGWVPVLFITFVVVWSYYAYVVELCVFTIFGNEENGKTVVYLVAFHLFFVMFVWSYWMTIFTSPASPSKEFYLSNSEKERYEKEFSQERQQEILRRAARALPIYTTSASKTIRYCEKCQLIKPDRAHHCSACDSCILKMDHHCPWVNNCVGFSNYKFFLLFLLYSLLYCLFVAATVLEYFIKFWTNELTDTRAKFHVLFLFFVSAMFFISVLSLFSYHCWLVGKNRTTIESFRAPTFSYGPDGNGFSLGCSKNWRQVFGDEKKYWLLPIFSSLGDGCSFPTRLVGMDPEQASVTNQNEYARSSGSNQPFPIKPLSESKNRLLDSESQWLENGAEEGIVKSGTNNHVTVAIEN [ZDHHC20] | -0.00639 |
| MVRDSMAAAFRPSNRVLLQALQILVYPGVGGSGSVSCRCPLGAKRYLLTDNVVKLKEFQQKKVAVACNLSGTKETYFRNLKKKLTQNKLILKGELITLLHLCESRDHVELAKNVIYRYHAENKNFTLGEYKFGPLFVRLCYELDLEESAVELMKDQHLRGFFSDSTSFNILMDMLFIKGKYKSALQVLIEMKNQDVKFTKDTYVLAFAICYKLNSPESFKICTTLREEALLKGEILSRRASCFAVALALNQNEMAKAVSIFSQIMNPESIACINLNIIIHIQSNMLENLIKTLKNAAEGNLSKFVKRHVFSEEVLAKVREKVKDVPALVAKFDEIYGTLHITGQVTTDSLDAVLCHTPRDRKSHTLLLNKRMVSRRTFQPLSQSLLAE [PTCD2] | -0.0152 |
| MASMAAAIAASRSAVMSGNRPLDDRERKRFTYFSSLSPMARKIMQDKEKIREKYGPEWARLPPAQQDEIIDRCLVGPRAPAPRDPGDSEELTRFPGLRGPTGQKVVRFGDEDLTWQDEHSAPFSWETKSQMEFSISALSIQEPSNGTAASEPRPLSKASQGSQALKSSQGSRSSSLDALGPTRKEEEASFWKINAERSRGEGPEAEFQSLTPSQIKSMEKGEKVLPPCYRQEPAPKDREAKVERPSTLRQEQRPLPNVSTERERPQPVQAFSSALHEAAPSQLEGKLPSPDVRQDDGEDTLFSEPKFAQVSSSNVVLKTGFDFLDNW [C1ORF198] | -0.228 |

Consider now this further sequence.
Which value of solubility in G1/S (log2) has been reported for MSDDDSRASTSSSSSSSSNQQTEKETNTPKKKESKVSMSKNSKLLSTSAKRIQKELADITLDPPPNCSAGPKGDNIYEWRSTILGPPGSVYEGGVFFLDITFTPEYPFKPPKVTFRTRIYHCNINSQGVICLDILKDNWSPALTISKVLLSICSLLTDCNPADPLVGSIATQYMTNRAEHDRMARQWTKRYAT [UBE2E1] in the records? 0.338
